Where these numbers come from: patent US8927538B2

Please go through the items and note down their GI50.
- Test system: Colo-205
- runDescription: ACTREC in vitro cytotoxicity, Colo-205
- Type: cell-based
- experimentalContext: Colon Colo-205 (Table 4)
Answers are plain numbers, in nM.

Field: example entries. Status: answers known.
In [3]: df
Out[3]:
                                   compound  measuredattribute  uom  endpointresult
0  COc1cc2c(cc1OCCCN1CCN(CCCCn3c4ccccc4c4ccccc43)CC1)N=C[C@@H]1CCCN1C2=O [Compound 14b]               GI50   nM             140
1  COc1ccc(-c2ccc3c(c2)c2cc(-c4ccc(OC)cc4)ccc2n3CCCCOc2cc3c(cc2OC)C(=O)N2CCC[C@H]2C=N3)cc1 [Compound 10e]               GI50   nM            2900
2  COc1cc2c(cc1OCCCCN1CCN(CCCCn3c4ccccc4c4ccccc43)CC1)N=C[C@@H]1CCCN1C2=O [Compound 14d]               GI50   nM             160

Below are some compounds; for each one, tell me its GI50.
1. COc1cc2c(cc1OCCCCCCn1c3ccccc3c3ccccc31)N=C[C@@H]1CCCN1C2=O [Compound 6d]
2. COc1cc2c(cc1OCCCCn1c3ccccc3c3ccccc31)N=C[C@@H]1CCCN1C2=O [Compound 6b]

1620
1700

Below are some compounds; for each one, tell me its GI50.
1. COc1cc2c(cc1OCCCn1c3ccccc3c3ccccc31)N=C[C@@H]1CCCN1C2=O [Compound 6a]
2. COc1ccc(-c2ccc3c(c2)c2cc(-c4ccc(OC)cc4)ccc2n3CCCOc2cc3c(cc2OC)C(=O)N2CCC[C@H]2C=N3)cc1 [Compound 10d]

[1680, 1700]

* * *

Please go through the items and note down their log10 of GI50.
- Tested on: KB
- runDescription: ACTREC in vitro cytotoxicity, KB
- Assay type: cell-based
- experimentalContext: Oral KB (Table 4)
The base-10 logarithm of GI50, taken with GI50 in nM, is what appears here.

Field: example entries. Status: answers known.
>>> print(df.to_string())
                                   compound  measuredattribute  endpointresult
0  COc1ccc(-c2ccc3c(c2)c2cc(-c4ccc(OC)cc4)ccc2n3CCCOc2cc3c(cc2OC)C(=O)N2CCC[C@H]2C=N3)cc1 [Compound 10d]      log10 of GI50            2.26
1  COc1cc2c(cc1OCCCCCCn1c3ccccc3c3ccccc31)N=C[C@@H]1CCCN1C2=O      log10 of GI50            3.29
2  COc1cc2c(cc1OCCCCn1c3ccccc3c3ccccc31)N=C[C@@H]1CCCN1C2=O      log10 of GI50            3.27
3  COc1cc2c(cc1OCCCCN1CCN(CCCCn3c4ccccc4c4ccccc43)CC1)N=C[C@@H]1CCCN1C2=O [Compound 14d]      log10 of GI50            2.18
4  COc1cc2c(cc1OCCCN1CCN(CCCCn3c4ccccc4c4ccccc43)CC1)N=C[C@@H]1CCCN1C2=O [Compound 14b]      log10 of GI50            2.15

For the next question, use this compound.
# log10 of GI50 lookup, item COc1cc2c(cc1OCCCn1c3ccccc3c3ccccc31)N=C[C@@H]1CCCN1C2=O
3.27
